# Test system: K4 kissing-loop RNA reporter
# test_method_notes: apparent KD of K4 kissing-loop reporter; higher = weaker reporter binding
# condition_summary: Eterna round: R107; input ligand: FMN 200 uM
This listing pairs sequences with measured apparent KD of K4 kissing-loop reporter.
property_label: apparent KD of K4 kissing-loop reporter (nM)

{"columns": ["sequence", "endpoint_value"],
 "data": [
  ["GGUAGCAUGGCGGCCGCCACUUUGCACCUUUUCUUUUCUUUUGGUGCUUCACGAGUGAUGUUCGUAAGGACCGGGCCAUGCUACC", 259],
  ["GCCGUACGCAUGGAUACCAGCGUACGUCACCUAGCAGUGAUGUUGCUAUUGCCACGUAAACGCCCUUGGCAGCCAUGCGUACGGC", 495],
  ["UUUUUGGAGAAUUAUAGUGAUGUUAUGAAGGAGGAUAUCUGGAGAUGGAGAAGGCCUAGUGGCUCAGCCAUGGAGGGUGGGUGGG [ExFMNA.aA]", 1110],
  ["ACACUUUACGUAGGAUAUGCGACGAGUGAUGUUCGUCAGGCGGCUCUAGAUUAAACAAGCCGCCUAGCAGAAGGACGGGCAGUGU [Teaanso]", 154],
  ["CAACCCUGCUUUUUCGAGUUUUAGGGAUGACGAGGACCGGUACGGCCGCCACUCGACUACACUGUUCAGUGAUGUUGAACGGCGG [Teveza]", 165],
  ["AGCAUUUUCAGAAGGAGCGUGAAUUAUUCUUAAUUAUAUUAUACGAGUGAUGUUCGUGUUUCACAGGUAGGUCGCUGAUAUAGCA [JR_SSArginiB_Sub004]", 51.4],
  ["CUGGGUUGACGAAAAGUCAACAAACGAGAAGGAGCGCACGAAAGUGCAGGUAGGUCGCUCAGUCCAGUGAUGUUGGAACAUCCAG [#SwitchBubble 8 #K4Late]", 664],
  ["CCAUCGCUAUUCGAUACCAGCUACUUAGUGAUGUUAAGUUUAAAUCCACUGUAGGUGGAAAGCCCUUGGCAGCGAAUAGUGAUGG [Theophylline B K4 24]", 315],
  ["UUGAGCCUGACGCAAGUCAGGCUCUGCGAGCGAGGACCGGUACGGCCGCCACUCGGUGCAGUGAUGUUGCAUGGCCGCAAGGCCG [#2 Exclusion - Tryptophan A Attempt #17 (HarryS)]", 316],
  ["AGUUCUUGCCGAAGGAGCGAGGCAGAGUGAUGUUCUGCAGAUGUCGAAAGACAUCAACUGCCUCAGGUAGGUCGCGGCAUGAACA [#05 K4 Arginine B Exclusion]", 114],
  ["GAGCGGUGGAGGUUACCGCUAUUCUGAGAAGGAGCGCAGAUGACUGCAGGUAGGUCGCUUAGAGCUUGCAGUGAUGUUGCAAGUU [Edrirama]", 197],
  ["UGACAUUGCUCAGAUACCAGACCUGAGGAUCACCCGGGUGCCAAACGUACAAUAAUAAAGGUCCCUUGGCAGCUGAGCAAUGUCU [TheoBX 14]", 56.2],
  ["CCGAGCCUGACGAAAGUCAGGCUCUGCGAGCGAGGACCGGUACGGCCGCCACUCGGUGCAGUGAUGUUGCAUGGCCGCAAGGCCG [#2 Exclusion - Tryptophan A Attempt #22 (HarryS)]", 156],
  ["GCUCGUCAUGUCAGCGGUGGUACUGUCGAUACCAGUGCCGUAAGGCGCCCUUGGCAGCGAUGCGCUGGAGUGAUGUUCCAGCGUU [#2 Exclusion - Theophylline A Attempt #32 (HarryS)]", 110],
  ["AGAAGGAGAACUGCAAGAACUCCUUCAGACUAGGAUAUCAGGAAACUGAGAAGGAGUCAACUUGCAGUGAUGUUGCAAGAAUAAU [[F]''-[K]'-[F]'-[F1]-[F2]-[K1]-[K2]_Design1]", 155],
  ["CGCAGUGAUGUUGCGAAUAUAAUCACGGAAGGAGCGCGUGAAAACGCAGGUAGGUCGCCGUGUGGUAUGAUGGAAACAUCGUACC [Arginine A K4 12]", 222],
  ["AAAAUAAACCAGUGAUGUUGGUGUCUAGAUACCAGCGACGAAAGUCGCCCUUGGCAGCUAUGGACGUACAAAAUAAGUACGUCCU [MatMod 6 - Jieux - Same State - Theophylline A]", 647],
  ["GAUAUAGUGAUGUUAUAUAGGAAGGAGUUACGAGGACCGGUACGGCCGCCACUCGAAACGAGUGAUGAUUUGGGAGAUUGGGUUG [SSTryptA.P]", 364],
  ["UGAUACCAGACGGCCGCCACUUCCGUAAGUCAAAGACUUGCCAAGGGAAUCGUCCAGUGAUGUUGGAGGACCGGGUCUGGUAUCU [FiskerMod 5 - Jieux - Exclusion - Tryptophan B]", 677],
  ["UAAUCCUAGUGAUAAUUAUCAAGUGGUGGGCGAGGACCGGUACGGCCGCCACUCGAAUAUGCAGUGAUGUUGUAAUCCGGAUAAU [Exclusion - Tryptophan A (Freestyle 7)]", 639],
  ["UUAGAAGUAUACUUCAAGAGCUAUACUGAUACCAGAGUCAAUUGACUCCCUUGGCAGCGGAUCGAGUGAUGUUCGUAAGCUCAUU [AK4 SS Theophylline A]", 464],
  ["ACGGGCGGCUGAAGGAGCGGGCGGGCCCGAGUGAUGUUCGGGUGGGCCGUGAGGCCCGGAGCCCAGGUAGGUCGCGGUUCCGUCC [#2 Same State - Arginine B Attempt #21 (HarryS)]", 135]
]}

###

# Tested on: MS2 coat protein
# test_method_notes: apparent KD of MS2 coat protein; designed switch direction (-1 OFF switch, 1 ON switch): 1; higher = weaker reporter binding
# condition_summary: Eterna round: R95; input ligand: FMN 200 uM

{"columns": ["sequence", "system", "apparent KD of MS2 coat protein / nM"],
 "data": [
  ["AACAAUCUAUCUGAGGAUAUCAUGAAAUAAACAUGAGGAUCACCCAUGUGCAGGAAAACUGCAUAUGAGAAGGUAGAUAGAUUGA [salish99_ss2_r3_050] (puzzle: Same State 2)", "MS2 coat protein", 176],
  ["GUUAUACAUGAGGAUCACCCAUGUCAAUGUAGUCGAGGAUAUGGGCAGCUAUGAGGCGUACUAGAAGGCGAGAAGU [Mat - Same State 1 - Mod of JL - D15] (puzzle: Same State 1)", "MS2 coat protein", 125],
  ["AGUCCAGCAUGAGCUGGACAAAAGCAUGUACAUGAGGAUCACCCAUGUCAUGUACAAGCUUUUUGCUCGUCUUAAAA [Mat - hsa-mir-208a - Mod of JL - D1] (puzzle: Sensor for hsa-mir-208a)", "MS2 coat protein", 512],
  ["UCUUGGUUUUUGCUCGUUUUUUGUGUUGAACAUGAGGAUCACCCAUGUAUUGUACGAUCCAAUUUAAUAAUGGUCCG [JMF 60] (puzzle: Sensor for hsa-mir-208a)", "MS2 coat protein", 42.6],
  ["CGUAGGUAGCUGGAGGAUAUUCGAGUGGUAACAUGAGGAUCACCCAUGUGGAGAGAGGUACAUGAGGAGAAGGCUAGCUGCCUGC [JL-ss2-3.14 JL mod] (puzzle: Same State 2)", "MS2 coat protein", 13.4]
]}

###

# Tested on: MS2 coat protein
# test_method_notes: apparent KD of MS2 coat protein; designed switch direction (-1 OFF switch, 1 ON switch): -1; higher = weaker reporter binding
# condition_summary: Eterna round: R95; input ligand: microRNA oligo, concentration not stated
This listing pairs sequences with measured apparent KD of MS2 coat protein.

{"columns": ["sequence", "apparent KD of MS2 coat protein"],
 "data": [
  ["CGAUGUUAUGUCAGGAUAUGCGUUGCGAAAGCAAUGUAGAAGGGACAUGAGGAUCACCCAUGUGCUAACCAUCG [Omei A 10] (puzzle: Brourd's mod of Exclusion 4)", "17.2 nM"],
  ["GGUACUAACACGAAAGUGUUAGUACAAUAAGCUAGUGGAACAUGAGGAUCACCCAUGUCCUCAUUAGCUCGUCUUAG [Mat - Sensor v3 - Turn-off var 2 - D37] (puzzle: Sensor v3, turn-off variant 2)", "37.6 nM"],
  ["ACAAGCUUUUUGUUCGUCUUAUACACUCCUAAGAGGACAACAUGAGGAUCACCCAUGUAACAAAGACGAACUCAUGU [Sesor Array 10 - Jieux - Sensor v3, turn-off variant 2] (puzzle: Sensor v3, turn-off variant 2)", "96.3 nM"]
]}

###

# Tested on: K4 kissing-loop RNA reporter;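 note: bound reporter read as fluorescence of individual clusters on recovered sequencing chips by microscopy, with normalized cluster intensities fitted with a binding model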
# test_method_notes: apparent KD of K4 kissing-loop reporter; higher = weaker reporter binding
# condition_summary: Eterna round: R107; input ligand: theophylline 20 uM
property_label: apparent KD of K4 kissing-loop reporter (nM)

{"columns": ["sequence", "property_label", "endpoint_value"],
 "data": [
  ["UAGUCUCGAGUCUGAGAUUACGGGUCAGAUACCAGACUAGAGAUAGUCCCUUGGCAGCUGAAGUUCAGUGAUGUUGAACGGAUUA [Theo B SS t10a]", "apparent KD of K4 kissing-loop reporter", 510],
  ["GUCCAACCUGGAGGAUAUCUGCUGUCCAGUGAUGUUGGACACUUUAGUAAAGGCCGGGUAGCCCGCAGAGAAGGCCGGAGUUGCC [Arceer]", "apparent KD of K4 kissing-loop reporter", 464],
  ["UAUUGUACAGGGAAAUUGAUAAUAGACUUACGAGGACCGGUACGGCCGCCACUCGAUAGUCGAGUGAUGUUCGAAUGCUAUUGAU [Attempt 1]", "apparent KD of K4 kissing-loop reporter", 314],
  ["UUACGCGGCAUAGAUACCAGCAAUGCAGGAUAGGUCAAGAGUGAUGUUCUGAUACUUGGGUGCCCUUGGCAGCUAGACGAUAACA [theeternabot_sameState_KL_Theo_B_46]", "apparent KD of K4 kissing-loop reporter", 412],
  ["UUUAUUAAGACGGCCGCCACUGAAUUAGAGUGAUGUUCUAAAAUUUUUAAUUUUUUUUUUUUCAGCAGGACCGGGUCAAUUAUUA [JR_SSTryptoB_Sub012]", "apparent KD of K4 kissing-loop reporter", 142],
  ["AAGUCUCGUUAAUUCGAGGUUACGAUCGAUACCAGUAGCGAGAGGUACCCUUGGCAGCGAAGUGAGUGAUGUUCAUGAAAGAAGA [KL-XTheoA12]", "apparent KD of K4 kissing-loop reporter", 131],
  ["ACAUCGGUUGAGAGUGAUGUUCCUUGUGUUCGAGGACCGGUACGGCCGCCACUCGGGUAGAAAAUAAAAGAUGUGUUUGAUUUUU [BDazzled - #15 SS Tryptophan A]", "apparent KD of K4 kissing-loop reporter", 275],
  ["UGACUGGACUGAAGGAGCGUUGAAGGAGCGUAGUGAGUGAUGUUCACUACAGGUAGGUCGCAGCAGGUAGGUCGCAGUCUAGUCU [ArgBS 25 #DoubleAptamer #SwitchBubble]", "apparent KD of K4 kissing-loop reporter", 83],
  ["AGUUCUUGCCGAAGGAGCGAGGCAGAGUGAUGUUCUGCAGAUGUCGAAAGACAUCAACUGCCUCAGGUAGGUCGCGGCAUGAACA [#05 K4 Arginine B Exclusion]", "apparent KD of K4 kissing-loop reporter", 87.3],
  ["GCGGGCCCUGGAGGAUAUGAGUCGAGUGAUGUUCGGCGGUCCAUGCCGAUGCGGCGUUAUGCCCUUUUAGAAGGCCAGGGCCCGC [#2 Exclusion - FMN B Attempt #7 (HarryS)]", "apparent KD of K4 kissing-loop reporter", 243],
  ["AGUCCACUCUAAAGAGUGGACCUAAGGGAUACCAGUGAUGUUGGUCACCCUUGGCAGCCCAGGGCCCGGGAUAAACCCGGGCCCA [#09 K4 Theophylline A Exclusion]", "apparent KD of K4 kissing-loop reporter", 99]
]}
